Molecular target: α5-GABAA receptor (Homo sapiens, UniProt P18507+P31644)
Construct: expressed in transfected cells; host or cells: HEK293, monoclonal stably transfected line
Sequence (P31644 32-462): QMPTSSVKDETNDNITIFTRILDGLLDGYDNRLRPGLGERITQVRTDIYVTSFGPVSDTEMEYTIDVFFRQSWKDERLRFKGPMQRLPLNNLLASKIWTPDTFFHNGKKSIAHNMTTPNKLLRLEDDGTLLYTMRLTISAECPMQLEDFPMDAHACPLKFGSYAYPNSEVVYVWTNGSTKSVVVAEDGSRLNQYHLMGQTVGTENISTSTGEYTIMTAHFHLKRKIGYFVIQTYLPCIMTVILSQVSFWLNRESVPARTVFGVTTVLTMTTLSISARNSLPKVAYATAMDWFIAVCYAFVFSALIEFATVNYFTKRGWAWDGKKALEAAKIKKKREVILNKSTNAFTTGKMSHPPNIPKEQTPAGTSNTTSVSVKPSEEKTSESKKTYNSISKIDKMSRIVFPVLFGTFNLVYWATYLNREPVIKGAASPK
Sequence (P28472 26-473 partner): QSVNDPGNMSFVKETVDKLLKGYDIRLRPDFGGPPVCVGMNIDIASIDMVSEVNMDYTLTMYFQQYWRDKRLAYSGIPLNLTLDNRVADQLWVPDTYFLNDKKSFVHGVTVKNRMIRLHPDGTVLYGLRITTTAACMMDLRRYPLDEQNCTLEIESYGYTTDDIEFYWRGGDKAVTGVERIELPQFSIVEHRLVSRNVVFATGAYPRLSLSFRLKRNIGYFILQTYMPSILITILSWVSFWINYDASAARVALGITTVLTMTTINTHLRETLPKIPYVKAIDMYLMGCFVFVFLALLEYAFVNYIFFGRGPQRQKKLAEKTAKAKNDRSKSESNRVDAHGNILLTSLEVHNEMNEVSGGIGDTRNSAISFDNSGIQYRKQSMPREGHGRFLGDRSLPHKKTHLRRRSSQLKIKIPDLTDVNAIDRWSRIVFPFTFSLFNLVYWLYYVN
Sequence (P18507 40-467 isoform P18507-1 limits assumed): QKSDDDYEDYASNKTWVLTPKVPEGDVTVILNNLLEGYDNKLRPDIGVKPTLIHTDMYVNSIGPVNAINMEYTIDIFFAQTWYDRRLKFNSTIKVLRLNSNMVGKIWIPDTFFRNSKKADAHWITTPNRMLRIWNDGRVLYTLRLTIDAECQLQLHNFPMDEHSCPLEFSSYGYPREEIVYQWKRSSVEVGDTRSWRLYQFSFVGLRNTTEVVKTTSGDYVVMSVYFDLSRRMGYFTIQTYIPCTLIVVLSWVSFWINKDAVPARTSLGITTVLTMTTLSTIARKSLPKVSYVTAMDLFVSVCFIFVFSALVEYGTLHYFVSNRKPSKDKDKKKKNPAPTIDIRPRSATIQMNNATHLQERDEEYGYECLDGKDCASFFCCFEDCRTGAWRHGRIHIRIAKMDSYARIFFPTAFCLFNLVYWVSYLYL
Assay: Cell-level screening: whole cell patch clamp, inverse agonist efficacy on α5-GABAA receptor expressed in HEK293
Format: cell-based
Settings: drug 100 nM, GABA 0.05 μM, HEK293 expressing α5, β3 and γ2 subunits, clamped at −60 mV; read-out: Compound inverse agonist efficacy %
Overview of reported inhibition at 0.1 µM across a group of compounds:
Just the number please, in %, no unit attached.

Some compounds with known inhibition at 0.1 µM results, for comparison:
[[record]]
compound = "COc1cc2nnc(-c3cc(C)on3)n2nc1OCc1ccc(OCCN2CCOCC2)nn1"
measured_attribute = "inhibition at 0.1 µM"
unit_abbreviation = "%"
recorded_value = 33.9

[[record]]
compound = "COc1cc2nnc(-c3cc(C)on3)n2nc1OCc1ccc2nnc(C(C)C)n2n1"
measured_attribute = "inhibition at 0.1 µM"
unit_abbreviation = "%"
recorded_value = 34.9

[[record]]
compound = "COc1cc2nnc(-c3cc(C)on3)n2nc1OCc1cnnn1C"
measured_attribute = "inhibition at 0.1 µM"
unit_abbreviation = "%"
recorded_value = 53.1

[[record]]
compound = "COc1cc2nnc(-c3cc(C)on3)n2nc1OCc1ccc(OC2COC2)cn1"
measured_attribute = "inhibition at 0.1 µM"
unit_abbreviation = "%"
recorded_value = 36

[[record]]
compound = "COc1cc2nnc(-c3cc(C)on3)n2nc1OCc1ccc2c(n1)CCN(S(C)(=O)=O)C2"
measured_attribute = "inhibition at 0.1 µM"
unit_abbreviation = "%"
recorded_value = 48.8


In: Entry under review: `COc1cc2nnc(-c3cc(C)on3)n2nc1OCc1ccc2c(cnn2C2CCOCC2)n1` . Reported inhibition at 0.1 µM?
Out: 48

In: Entry under review: `COc1cc2nnc(-c3cc(C)on3)n2nc1OCc1nccc(OC)c1OC` . Reported inhibition at 0.1 µM?
Out: 30.1

In: Entry under review: `COc1cc2nnc(-c3cc(C)on3)n2nc1OCc1ccc(F)cn1` . Reported inhibition at 0.1 µM?
Out: 38.5

In: Entry under review: `COc1ccc2nc(COc3nn4c(-c5cc(C)on5)nnc4cc3OC)ccc2c1` . Reported inhibition at 0.1 µM?
Out: 37.3

In: Entry under review: `COc1cc2nnc(-c3cc(C)on3)n2nc1OCc1ccc(OC2CCOCC2)cn1` . Reported inhibition at 0.1 µM?
Out: 43.5

In: Entry under review: `CCN1CCC(c2cccc(COc3nn4c(-c5cc(C)on5)nnc4cc3OC)n2)CC1` . Reported inhibition at 0.1 µM?
Out: 42.5

In: Entry under review: `COc1cc2nnc(-c3cc(C)on3)n2nc1OCc1ccc(OCCN2CCC2)cn1` . Reported inhibition at 0.1 µM?
Out: 36.9

In: Entry under review: `COc1cc2nnc(-c3cc(C)on3)n2nc1OCc1ccc2c(cnn2CCc2ccccc2)n1` . Reported inhibition at 0.1 µM?
Out: 30.8

In: Entry under review: `COc1cc2nnc(-c3cc(C)on3)n2nc1OCc1ccc(-c2nc(C)no2)cn1` . Reported inhibition at 0.1 µM?
Out: 47.2

In: Entry under review: COc1cc2nnc(-c3cc(C)on3)n2nc1OCc1cccc(C2CCCN(C3COC3)C2)n1 (stereo not shown) . Reported inhibition at 0.1 µM?
Out: 31.9

In: Entry under review: `COc1cc2nnc(-c3cc(C)on3)n2nc1OCc1ccc(C#N)cn1` . Reported inhibition at 0.1 µM?
Out: 39.4

In: Entry under review: `COc1cc2nnc(-c3cc(C)on3)n2nc1OCc1ccc2nccn2n1` . Reported inhibition at 0.1 µM?
Out: 49.3

In: Entry under review: `COc1cc2nnc(-c3cc(C)on3)n2nc1OCc1ccc2c(n1)CCN(C1COC1)C2` . Reported inhibition at 0.1 µM?
Out: 39.6

In: Entry under review: COc1cc2nnc(-c3cc(C)on3)n2nc1OCc1ccc2c(n1)CN(C1CCOC1)C2 (stereo not shown) . Reported inhibition at 0.1 µM?
Out: 39
